- assay-comment: yeast display, Sf9 membrane polyspecificity reagent, FACS + sequencing; frameworks hold sequencing errors

| primary-sequence | polyreactivity (PSR sort gate) |
| --- | --- |
| QVQLVESGGGLVQAGVSLRLSCAASGFIFEPSAMGWYRQAPGKERELVAAISSGGSTNADSVKGRFTISRDNAKNTVYLQMNSLKPEDTAVYYCAADSYYSVWGFYYWGQGTQVTVSS | low polyreactivity |
| QVQLVESVGGLVQAGGSLRLSCAASGFILRVNDMGWYRQAPGKERELVAAISQGDGSTYYADSVKGRFTISSDNAKNSVYLQMNSLKPEDNAVYYCNAELYRDLGGYDHWGQGTQVTVSS | low polyreactivity |
| QVQLEESGGRLLQAGGSLRLSCAASGCTFGSYDMGLYRQAPGKERELVARISSDGSTNYADSVKGRFSISRDNAKNTVYLQMNSLKPEDTAGYYCARDRKRQADDIGEFDYWGQGSQVTVSS | low polyreactivity |
